Test system: Escherichia coli
Assay: Inhibition of LspA in Escherichia coli CFT073imp4213 harboring outer membrane-permeable mutant assessed as inhibition of bacterial growth
TEST READOUT: MIC (µM)
Express it in µM; write the number only.

Check out these entries, answers already filled in.
structure=CCCCCC[C@H]1OC[C@@H](C)NC(=O)[C@H](COc2ccc(CCN)cc2)NC(=O)[C@H](CN)NC(=O)[C@H](C2CCCCC2)NC(=O)[C@H](CCC)N(C)C(=O)[C@@H]1C readout_value=0.048
structure=CCCCCC[C@H]1C(=O)N(C)[C@@H](CC(C)C)C(=O)N[C@@H](C2CCCCC2)C(=O)N[C@@H](CN)C(=O)N[C@@H]([C@H](C)O)C(=O)NCCN1C readout_value=0.39

Provide only the value of recorded MIC for CCCCCCCCCC[C@H]1OC(=O)CNC(=O)[C@H]([C@H](C)O)NC(=O)[C@H](CN)NC(=O)[C@H]([C@H](C)CC)NC(=O)[C@H](CC(C)C)N(C)C(=O)[C@@H]1C
0.011

###

System: Escherichia coli CFT073
Assay: Inhibition of LspA in wild type Escherichia coli CFT073 assessed as inhibition of bacterial growth
Starred links: 1 amine or outer side, 2 acyl side, 3 side chain; linkers in the order of their positions; H or OH if unused. Non-standard residues stand in square brackets, D forms with d. Residues, ends and D or L forms follow the SMILES beside them. *: point of attachment. X1 = CCCCCC[C@@H](OC[C@@H](C)N[*:1])[C@@H](C)C(=O)[*:2]; Gly(cHept) = N[C@H](C(=O)O)C1CCCCCC1; NMeL = CN[C@@H](CC(C)C)C(=O)O; Chg = N[C@H](C(=O)O)C1CCCCC1; NMeNva = CCC[C@H](NC)C(=O)O; Propyl(3-NMe2) = CN(C)CCC*; X2 = NC[C@H]1C[C@H](*)C1; Dap = NC[C@H](N)C(=O)O
Listing: MIC of selected compounds
Express it in µM; write the number only.

compound="CCCCCC[C@H]1OC[C@@H](C)NC(=O)[C@H](COCCCN(C)C)NC(=O)[C@H](CN)NC(=O)[C@H](C2CCCCC2)NC(=O)[C@H](CC(C)C)N(C)C(=O)[C@@H]1C (cyclo([Chg][Dap]S(Propyl(3-NMe2))[X1][NMeL]))" readout_value=25

Provide only the value of recorded MIC for CCCCCC[C@H]1OC[C@@H](C)NC(=O)[C@H](CO[C@H]2C[C@H](CN)C2)NC(=O)[C@H](CN)NC(=O)[C@H](C2CCCCCC2)NC(=O)[C@H](CCC)N(C)C(=O)[C@@H]1C (cyclo([Dap]S(X2)[X1][NMeNva][Gly(cHept)]))
3.1

###

Listing: MIC of selected compounds
Test system: Pseudomonas aeruginosa
Assay: Inhibition of LspA in Pseudomonas aeruginosa assessed as inhibition of bacterial growth
Starred links: 1 amine or outer side, 2 acyl side, 3 side chain; linkers in the order of their positions; H or OH if unused. Non-standard residues stand in square brackets, D forms with d. Residues, ends and D or L forms follow the SMILES beside them. *: point of attachment. X6 = C[C@H](CO[C@H](CC1C[C@H]2CC[C@@H](C1)C2)[C@@H](C)C(=O)[*:2])N[*:1]; dAlaψ(CH2NBu)Nle = CCCC[C@@H](C(=O)[*:2])N(CCCC)C[C@@H](C)N[*:1]; X3 = C[C@H](CO[C@H](CC1CC2(CCC2)C1)[C@@H](C)C(=O)[*:2])N[*:1]; Cyclobutyl(trans-3-NH2) = N[C@H]1C[C@H](*)C1; Gly(cHept) = N[C@H](C(=O)O)C1CCCCCC1; Chg = N[C@H](C(=O)O)C1CCCCC1; NMeNva = CCC[C@H](NC)C(=O)O; Dap = NC[C@H](N)C(=O)O; X5 = NCCCNCCC*
Express it in µM; write the number only.

compound="CCC[C@H]1C(=O)N[C@@H](C2CCCCCC2)C(=O)N[C@@H](CN)C(=O)N[C@@H](CO[C@H]2C[C@H](N)C2)C(=O)N[C@H](C)CO[C@H](CC2CC3(CCC3)C2)[C@@H](C)C(=O)N1C (cyclo([Dap]S(Cyclobutyl(trans-3-NH2))[X3][NMeNva][Gly(cHept)]))" test_readout=MIC value_units=µM readout_value=71
compound="CCC[C@H]1C(=O)N[C@@H](C2CCCCCC2)C(=O)N[C@@H](CN)C(=O)N[C@@H](COCCCNCCCN)C(=O)N[C@H](C)CO[C@H](CC2C[C@H]3CC[C@@H](C2)C3)[C@@H](C)C(=O)N1C (some centres undefined) (cyclo([Dap]S(X5)[X6][NMeNva][Gly(cHept)]))" test_readout=MIC value_units=µM readout_value=12
compound="CCC[C@H]1C(=O)N[C@@H](C2CCCCCC2)C(=O)N[C@@H](CN)C(=O)N[C@@H](COCCCNCCCN)C(=O)N[C@H](C)CO[C@H](CC2CC3(CCC3)C2)[C@@H](C)C(=O)N1C (cyclo([Dap]S(X5)[X3][NMeNva][Gly(cHept)]))" test_readout=MIC value_units=µM readout_value=50

In the following, a different compound is considered.
Provide only the value of recorded MIC for CCCC[C@H]1C(=O)N(C)[C@@H](CCC)C(=O)N[C@@H](C2CCCCC2)C(=O)N[C@@H](CN)C(=O)N[C@@H](CO[C@H]2C[C@H](N)C2)C(=O)N[C@H](C)CN1CCCC (cyclo([Chg][Dap]S(Cyclobutyl(trans-3-NH2))[dAlaψ(CH2NBu)Nle][NMeNva]))
100

###

Listing: MIC of selected compounds
System: Escherichia coli
Experiment: Inhibition of LspA in Escherichia coli CFT073imp4213 harboring outer membrane-permeable mutant assessed as inhibition of bacterial growth
Starred links: 1 amine or outer side, 2 acyl side, 3 side chain; linkers in the order of their positions; H or OH if unused. Non-standard residues stand in square brackets, D forms with d. Residues, ends and D or L forms follow the SMILES beside them. X7 = CCCCCC[C@@H](O[C@H](C)CN[*:1])[C@@H](C)C(=O)[*:2]; aThr = C[C@H](O)[C@H](N)C(=O)O; NMeL = CN[C@@H](CC(C)C)C(=O)O; Chg = N[C@H](C(=O)O)C1CCCCC1; Dap = NC[C@H](N)C(=O)O
The reply should consist of the numeric value with the unit placed after it.

compound=CCCCCC[C@H]1OC(=O)CNC(=O)[C@H]([C@H](C)O)NC(=O)[C@H](CO)NC(=O)[C@H]([C@H](C)CC)NC(=O)[C@H](CC(C)C)N(C)C(=O)[C@@H]1C test_readout=MIC readout_value="0.25 µM"
compound=CCCCCC[C@H]1OC[C@@H](C)NC(=O)[C@H]([C@H](C)O)NC(=O)[C@H](CN)NC(=O)[C@H](C2CCCCC2)NC(=O)[C@H](CC(C)C)N(C)C(=O)[C@@H]1C test_readout=MIC readout_value="0.034 µM"

Provide only the value of recorded MIC for CCCCCCCCCC[C@H]1OC(=O)CNC(=O)[C@H]([C@H](C)O)NC(=O)[C@H](C)NC(=O)[C@H]([C@@H](C)CC)NC(=O)[C@H](CC(C)C)N(C)C(=O)[C@@H]1C
25 µM

Provide only the value of recorded MIC for CCCCCC[C@H]1O[C@H](C)CNC(=O)[C@H]([C@H](C)O)NC(=O)[C@H](CN)NC(=O)[C@H](C2CCCCC2)NC(=O)[C@H](CC(C)C)N(C)C(=O)[C@@H]1C (cyclo([Chg][Dap][aThr][X7][NMeL]))
0.4 µM

Provide only the value of recorded MIC for CCCCCCCCCC[C@H]1OC(=O)CNC(=O)[C@H]([C@H](C)O)NC(=O)[C@H](Cc2c[nH]cn2)NC(=O)[C@H]([C@@H](C)CC)NC(=O)[C@H](CC(C)C)N(C)C(=O)[C@@H]1C
6.3 µM

###

System: Escherichia coli
Assay: Inhibition of LspA in Escherichia coli CFT073imp4213 harboring outer membrane-permeable mutant assessed as inhibition of bacterial growth
Starred links: 1 amine or outer side, 2 acyl side, 3 side chain; linkers in the order of their positions; H or OH if unused. Non-standard residues stand in square brackets, D forms with d. Residues, ends and D or L forms follow the SMILES beside them. Groups on a side chain read outwards from the residue. *: point of attachment. X1 = CCCCCC[C@@H](OC[C@@H](C)N[*:1])[C@@H](C)C(=O)[*:2]; X9 = CCCCCC[C@@H](OCCN[*:1])[C@@H](C)C(=O)[*:2]; Gly(cHept) = N[C@H](C(=O)O)C1CCCCCC1; Propyl(3-guanidino) = N=C(N)NCCC*; aThr = C[C@H](O)[C@H](N)C(=O)O; NMeL = CN[C@@H](CC(C)C)C(=O)O; Chg = N[C@H](C(=O)O)C1CCCCC1; NMeNva = CCC[C@H](NC)C(=O)O; X13 = N[C@H]1C[C@H](N*)C1; Dap = NC[C@H](N)C(=O)O; CO = O=C([*:1])[*:2]
Listing: MIC of selected compounds
Express it in µM; write the number only.

Check out these entries, answers already filled in.
compound="CCCCCC[C@H]1OC[C@@H](C)NC(=O)[C@H](CNC(=O)N[C@H]2C[C@H](N)C2)NC(=O)[C@H](CN)NC(=O)[C@H](C2CCCCCC2)NC(=O)[C@H](CCC)N(C)C(=O)[C@@H]1C (cyclo([Dap][Dap]([CO-X13])[X1][NMeNva][Gly(cHept)]))" target_or_test_system="Escherichia coli" readout_value=0.39
compound=CCC[C@H]1C(=O)N[C@@H](C2CCCCCC2)C(=O)N[C@@H](CN)C(=O)N[C@@H]([C@H](C)O)C(=O)NCC(=O)O[C@H](C[C@@H]2CC[C@@H]3CC[C@H]2C3)[C@@H](C)C(=O)N1C target_or_test_system="Escherichia coli" readout_value=0.009
compound="CCCCCC[C@H]1OC[C@@H](C)NC(=O)[C@H](COCCCNC(=N)N)NC(=O)[C@H](CN)NC(=O)[C@H](C2CCCCC2)NC(=O)[C@H](CC(C)C)N(C)C(=O)[C@@H]1C (cyclo([Chg][Dap]S(Propyl(3-guanidino))[X1][NMeL]))" target_or_test_system="Escherichia coli" readout_value=0.2
compound="CCCCCC[C@H]1OCCNC(=O)[C@H]([C@H](C)O)NC(=O)[C@H](CN)NC(=O)[C@H](C2CCCCC2)NC(=O)[C@H](CC(C)C)N(C)C(=O)[C@@H]1C (cyclo([Chg][Dap][aThr][X9][NMeL]))" target_or_test_system="Escherichia coli" readout_value=0.14

In the following, a different compound is considered.
Provide only the value of recorded MIC for CC[C@@H](C)[C@@H]1NC(=O)[C@H](CC(C)C)N(C)C(=O)[C@H](C)[C@@H](CCCCC(C)(C)C)OC(=O)CNC(=O)[C@H]([C@H](C)O)NC(=O)[C@H](CN)NC1=O
0.035
